system: human GPR40 (Homo sapiens, UniProt O14842)
Construct: expressed in transfected cells; host or cells: HEK cells stably expressing the aequorin reporter
Sequence (O14842 whole entry): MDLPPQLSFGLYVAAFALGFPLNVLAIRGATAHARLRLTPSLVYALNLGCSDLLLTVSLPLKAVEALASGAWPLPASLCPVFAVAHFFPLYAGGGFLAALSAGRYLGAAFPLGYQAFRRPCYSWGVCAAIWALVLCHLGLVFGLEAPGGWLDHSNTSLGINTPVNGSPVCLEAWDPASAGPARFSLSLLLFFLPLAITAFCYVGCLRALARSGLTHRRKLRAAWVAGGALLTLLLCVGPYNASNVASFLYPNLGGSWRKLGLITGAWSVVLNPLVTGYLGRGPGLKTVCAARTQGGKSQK
protocol.description: Inositol Phosphate Turnover (IP1) Assay 2
Type: cell-based
test.parameters: HEK cells stably expressing human GPR40; 15,000 cells per well; compound acoustically transferred; CisBio IP-One kit
Lab note: cut-off is 2 nM. Strictly less in EC50 is criterion met. Exactly 2 nM or more is criterion not met.

Prompt line: Please let me know if COc1cc(-c2ccc([C@H]3CCc4ccc([C@H](C5CC5)[C@H](C)C(=O)O)cc4O3)cc2CN2CCC[C@H]2C)c(F)cn1 [Example 137] shows EC50 below 2 nM.
Response line: criterion not met

Prompt line: Record COc1cc(-c2ccc([C@H]3CCc4ccc([C@H](C5CC5)[C@H](C)C(=O)O)cc4O3)cc2CN2CCCCC2(C)C)c(F)cn1 [Example 166] : is its EC50 strictly below 2 nM?
Response line: criterion met

Prompt line: Find out if reported EC50 for COc1cc(-c2ccc(C3CCc4ccc([C@H](C5CC5)[C@H](C)C(=O)O)cc4O3)cc2CN2CCCC2)c(F)cn1 (mixture of isomers) [Example 9] is less than 2 nM
Response line: criterion not met

Prompt line: Does this molecule meet the criterion EC50 < 2 nM? CCOc1cc(-c2ccc(C3CCc4ccc([C@H](C5CC5)[C@H](C)C(=O)O)cc4O3)cc2CN(CC)CC)c(F)cn1 (mixture of isomers) [Example 76]
Response line: criterion not met

Prompt line: In plain terms, does COc1cc(-c2ccc(C3CCc4ccc([C@H](C5CC5)[C@H](C)C(=O)O)cc4O3)cc2CN2CC[C@H](C(F)(F)F)C2)c(F)cn1 (single isomer, unassigned) [Example 30] come in under 2 nM for EC50?
Response line: criterion met

Prompt line: EC50 strictly < 2 nM for this molecule? COc1cc(-c2ccc(C3CCc4ccc([C@H](C5CC5)[C@H](C)C(=O)O)cc4O3)cc2CN2CCCC2)c(F)cn1 (single isomer, unassigned) [Example 9b]
Response line: criterion not met

Prompt line: Given COc1cc(-c2ccc(C3CCc4ccc([C@H](C5CC5)[C@H](C)C(=O)O)cc4O3)cc2CN2CCC[C@H]2C)c(F)cn1 (stereo partly drawn) [Example 50] , is recorded EC50 strictly lower than 2 nM?
Response line: criterion met

Prompt line: Quick check: EC50 of COc1cc(-c2ccc(C3CCc4ccc([C@H](C5CC5)[C@H](C)C(=O)O)cc4O3)cc2CN2CCOCC2)c(F)cn1 (single isomer, unassigned) [Example 11a] under 2 nM?
Response line: criterion met

Prompt line: Field: below-cutoff. Rule: recorded EC50 strictly less than 2 nM. Subject: COc1cc(-c2ccc(C3CCc4ccc([C@H](C5CC5)[C@H](C)C(=O)O)cc4O3)cc2CN(C)CC(F)(F)F)c(F)cn1 (stereo partly drawn) [Example 20]
Response line: criterion met

Prompt line: Problem: For the molecule COc1cc(-c2ccc(C3CCc4ccc([C@H](C5CC5)[C@H](C)C(=O)O)cc4O3)cc2CN2CC[C@@H](S(C)(=O)=O)C2)c(F)cn1 (stereo partly drawn) [Example 5] , is EC50 under 2 nM?
Response line: criterion not met

Prompt line: Criterion: EC50 strictly below 2 nM. Is it met by COc1cc(-c2ccc(C3CCc4ccc([C@H](C5CC5)[C@H](C)C(=O)O)cc4O3)cc2CN2CCCC2(C)C)c(F)cn1 (mixture of isomers) [Example 66] ?
Response line: criterion met

Prompt line: Lab log: compare recorded EC50 with 2 nM; is it strictly lower for COc1cc(-c2ccc(C3CCc4ccc([C@H](C5CCC5)[C@H](C)C(=O)O)cc4O3)cc2CN(C)C)c(F)cn1 (single isomer, unassigned) [Example 94] ?
Response line: criterion met
